Molecular target: E. coli DnaE (DNA polymerase III α-subunit from Escherichia coli) (Escherichia coli)
Construct: EcDnaE (E. coli DnaE residues 1-1160); 6xHis (N); made in house; host or cells: E. coli BL21(DE3)
Sequence (P10443 whole entry, the tested form may be a part): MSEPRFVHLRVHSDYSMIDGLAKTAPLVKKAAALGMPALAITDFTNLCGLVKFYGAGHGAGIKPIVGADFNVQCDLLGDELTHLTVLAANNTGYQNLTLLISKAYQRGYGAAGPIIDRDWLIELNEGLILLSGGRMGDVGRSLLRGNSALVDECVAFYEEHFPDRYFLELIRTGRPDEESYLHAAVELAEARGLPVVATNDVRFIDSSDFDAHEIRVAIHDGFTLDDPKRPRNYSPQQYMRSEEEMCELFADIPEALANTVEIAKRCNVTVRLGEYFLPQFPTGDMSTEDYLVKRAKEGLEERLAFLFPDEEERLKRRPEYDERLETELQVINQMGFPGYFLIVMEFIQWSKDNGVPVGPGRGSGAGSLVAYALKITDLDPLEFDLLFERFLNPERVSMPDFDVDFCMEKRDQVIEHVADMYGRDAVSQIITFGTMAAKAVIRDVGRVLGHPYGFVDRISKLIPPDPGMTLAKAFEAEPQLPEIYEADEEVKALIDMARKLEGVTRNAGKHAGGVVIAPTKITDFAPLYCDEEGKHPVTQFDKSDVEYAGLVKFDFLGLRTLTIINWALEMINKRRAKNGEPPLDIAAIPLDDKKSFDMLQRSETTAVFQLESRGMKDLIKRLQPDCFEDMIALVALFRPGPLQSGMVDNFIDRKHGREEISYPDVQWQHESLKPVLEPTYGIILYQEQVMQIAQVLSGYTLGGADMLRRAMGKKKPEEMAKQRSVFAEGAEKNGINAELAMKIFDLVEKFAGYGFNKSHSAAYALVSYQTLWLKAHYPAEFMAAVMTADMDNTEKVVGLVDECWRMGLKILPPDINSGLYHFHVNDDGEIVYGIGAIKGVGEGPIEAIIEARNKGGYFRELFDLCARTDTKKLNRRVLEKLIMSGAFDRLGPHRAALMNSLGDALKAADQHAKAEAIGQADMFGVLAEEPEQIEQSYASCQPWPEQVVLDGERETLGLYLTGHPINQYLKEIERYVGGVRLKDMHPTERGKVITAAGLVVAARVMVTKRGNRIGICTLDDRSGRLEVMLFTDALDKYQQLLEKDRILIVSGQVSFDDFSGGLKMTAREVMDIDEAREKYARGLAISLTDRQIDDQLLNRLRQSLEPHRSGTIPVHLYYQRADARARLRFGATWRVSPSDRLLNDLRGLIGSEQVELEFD
Assay: In vitro DnaE single enzyme assay (E. coli)
Format: biochemical
Settings: read-out: E. coli DnaE IC50 (converted)
Protocol: Plasmids encoding EcDnaE (E. coli DnaE residues 1-1160) and SaDnaE (S. aureus DnaE residues 1-1065) with 6×His N-terminal tags, were overexpressed in BL21(DE3) and BL21-AI cells (Invitrogen), respectively. Cells were grown in LB media to an OD ˜0.45 pelleted and then resuspended in Minimal Media, as described in Pryor et al. (1997, Protein Expr Purif. 10:309-19), and inducer (0.4 mM IPTG or 0.2% arabinose) for 21 hours at 18° C. at 220 rpm. […]
Overview of recorded log10 IC50 for various compounds
Please interpret these as log10 of IC50 where IC50 is in µM.

// known answers, use as guide
{"COMPOUND": "CO[C@H]1CC2C=C[C@H]3[C@H]4O[C@]2(/C(C)=C/[C@@H](C)[C@@H](/C(C)=N\\O)OC1=O)[C@@H]3[C@H](O)[C@@H](C)[C@H]4OC(=O)c1ccc[nH]1 (some centres unmarked)", "log10 IC50": 1.06}
{"COMPOUND": "CO[C@H]1C[C@H]2C=C[C@H]3[C@H]4O[C@]2(/C(C)=C/[C@@H](C)[C@H](c2ccccc2)OC1=O)[C@@H]3[C@H](O)[C@@H](C)[C@H]4OC(=O)c1ccc[nH]1", "log10 IC50": 1.86}
{"COMPOUND": "CO[C@H]1C[C@H]2C=C[C@H]3[C@H]4O[C@]2(/C(C)=C/[C@@H](C)[C@@H]([C@@H](C)OC(=O)C[N+]25CC[N+](CC(N)=O)(CC2)CC5)OC1=O)[C@@H]3[C@H](O)[C@@H](C)[C@H]4OC(=O)c1ccc[nH]1.O=S(=O)([O-])C(F)(F)F.[Br-]", "log10 IC50": 1.32}
{"COMPOUND": "CO[C@H]1C[C@H]2C=C[C@H]3[C@H]4O[C@]2(/C(C)=C/[C@@H](C)[C@@H]([C@@H](C)OC(=O)NCc2ccc(O)c(O)c2)OC1=O)[C@@H]3[C@H](O)[C@@H](C)[C@H]4OC(=O)c1ccc[nH]1", "log10 IC50": 1.34}

Look up log10 IC50 of CCCNC(=O)O[C@@H]1[C@@H](C)[C@@H](OC(=O)c2ccc[nH]2)[C@@H]2O[C@@]34/C(C)=C/[C@@H](C)[C@@H]([C@@H](C)OC(=O)NCCC)OC(=O)[C@@H](OC)C[C@H]3C=C[C@@H]2[C@@H]14 and report it.
1.49

Look up log10 IC50 of CO[C@H]1C[C@H]2C=C[C@H]3[C@H]4O[C@]2(/C(C)=C/[C@@H](C)[C@@H]([C@@H](C)O)OC1=O)[C@@H]3[C@H](O)[C@@H](C)[C@H]4OC(=O)c1cc(Br)c[nH]1 and report it.
1.23

Look up log10 IC50 of CO[C@H]1C[C@H]2C=CC3C4[C@H](O)[C@@H](C)[C@@H](OC(=O)c5ccc[nH]5)[C@@H]3O[C@]42/C(C)=C/[C@@H](C)[C@@H]([C@@H](C)OC(=O)C(=O)OCCN2CCCCC2)OC1=O.O=C(O)C(F)(F)F and report it.
0.65

Look up log10 IC50 of CO[C@H]1C[C@H]2C=C[C@H]3[C@H]4O[C@]2(/C(C)=C/[C@@H](C)[C@@H]([C@@H](C)OC(=O)NC(C)C)OC1=O)[C@@H]3[C@H](O)[C@@H](C)[C@H]4OC(=O)c1ccc[nH]1 and report it.
1.70

Look up log10 IC50 of CO[C@H]1CC2C=C[C@H]3[C@H]4O[C@]2(/C(C)=C/[C@@H](C)[C@@H](C(C)O)OC1=O)[C@@H]3[C@H](O)[C@@H](C)[C@H]4OC(=O)c1[nH]c(-c2ccsc2)c(-c2ccsc2)c1-c1ccsc1 (some centres unmarked) and report it.
-0.28
